molecular target: 5‐HT1A receptor (Rattus norvegicus); construct: 80 μg of hippocampal membrane suspension (the 5‐HT1A assay); from tissue; host or cells: rat (Sprague-Dawley) hippocampus membranes; test: 5‐HT1A competition binding assay ([3H]8‐OH‐DPAT, hippocampal membranes); conditions: 1 nM [3H]8‐OH‐DPAT, 95% CI in brackets, read-out: 5‐HT1A Ki (95% CI)
// Ki lookup, one value per entry
Provide only the numeric value, understood in nM.

Below: 8 molecules and their reported Ki.
So what's the measured Ki for this one? O=C(NCCCN1CCN(c2ccccc2C2=NCCS2)CC1)C1CC2C=CC1C2 (stereo not drawn)
220

Give the measured Ki of O=C1C2C3C=CC(C3)C2C(=O)N1OCCCN1CCN(c2cccc(C3=NCCS3)c2)CC1 (stereo not drawn) .
710

Give the measured Ki of O=C(NCCCN1CCN(c2ccccc2C2=NCCS2)CC1)c1ccccn1 .
2350

Returns the measured Ki for the input molecule. Input: O=C1C2C3C=CC(C3)C2C(=O)N1OCCCN1CCN(c2ccccc2C2=NCCS2)CC1 (stereo not drawn)
54

// query Ki value for entry O=C(NCCCN1CCN(c2cccc(C3=NCCS3)c2)CC1)c1ccccn1
1860

Dear colleague, I am looking for the recorded Ki of the following molecule: O=C(NCCCN1CCN(c2cccc(C3=NCCS3)c2)CC1)C1CC2C=CC1C2 (stereo not drawn) [FG‐17]
823

I'd like to know its Ki. The molecule in question is O=C1C2C3C=CC(O3)C2C(=O)N1OCCCN1CCN(c2ccccc2C2=NCCS2)CC1 (stereo not drawn)
610

Look up Ki: O=C(NCCCN1CCN(c2ccccc2C2=NCCS2)CC1)c1ccncc1
1540

// moving on: another record for Ki
Quick check: Ki of O=C(NCCCN1CCN(c2cccc(C3=NCCS3)c2)CC1)C1CC2C=CC1C2 (stereo not drawn) [FG‐14] ?
340

====

target: UniProt P14842; assay: 5‐HT2A competition binding assay ([3H]ketanserin, frontal cortex membranes); design: from tissue; host or cells: rat (Sprague-Dawley) frontal cortex membranes; details: 1 nM [3H]ketanserin, 95% CI in brackets, read-out: 5‐HT2A Ki (95% CI)
Recorded pKi for the following compounds
pKi field: float, defined as -log10 of concentration (mol/L).

In the examples that follow, each entry is paired with its recorded pKi.
Look up pKi: O=C1C2C3C=CC(C3)C2C(=O)N1OCCCN1CCN(c2ccc(C3=NCCS3)cc2)CC1 (centres unmarked)
4.85

For O=C(NCCCN1CCN(c2ccccc2C2=NCCS2)CC1)C1CC2C=CC1C2 (centres unmarked) [FG‐13] , what is its reported pKi?
5.45

So what does the record say about pKi for O=C1C2C3C=CC(C3)C2C(=O)N1OCCCN1CCN(c2cccc(C3=NCCS3)c2)CC1 (centres unmarked) ?
5.96

Please look up its pKi: O=C(NCCCN1CCN(c2cccc(C3=NCCS3)c2)CC1)c1ccccn1
5.54

Next:
Recorded pKi for O=C(NCCCN1CCN(c2ccc(C3=NCCS3)cc2)CC1)c1ccccn1 , please?
5.20

Can you look up the measured pKi of O=C1C2C3C=CC(C3)C2C(=O)N1OCCCN1CCN(c2ccccc2C2=NCCS2)CC1 (centres unmarked) for me?
5.54

What pKi value was documented for this compound, O=C(NCCCN1CCN(c2ccc(C3=NCCS3)cc2)CC1)c1ccncc1 ?
5.34

Which value of pKi has been reported for O=C1C2C3C=CC(O3)C2C(=O)N1OCCCN1CCN(c2ccccc2C2=NCCS2)CC1 (centres unmarked) in the records?
5.42

Query (compound): O=C(NCCCN1CCN(c2cccc(C3=NCCS3)c2)CC1)C1CC2C=CC1C2 (centres unmarked) [FG‐14] ; field requested: pKi
6.37

====

target: 5‐HT2C receptor (Rattus norvegicus, UniProt P08909); construct: 10 μM pargyline and 160μg of the frontal cortex membrane suspension; from tissue; host or cells: rat (Sprague-Dawley) frontal cortex membranes; experiment: 5‐HT2C competition binding assay ([3H]mesulergine, frontal cortex membranes); details: 5 nM [3H]mesulergine, read-out: 5‐HT2C pKi (converted)
Sequence (P08909 33-460): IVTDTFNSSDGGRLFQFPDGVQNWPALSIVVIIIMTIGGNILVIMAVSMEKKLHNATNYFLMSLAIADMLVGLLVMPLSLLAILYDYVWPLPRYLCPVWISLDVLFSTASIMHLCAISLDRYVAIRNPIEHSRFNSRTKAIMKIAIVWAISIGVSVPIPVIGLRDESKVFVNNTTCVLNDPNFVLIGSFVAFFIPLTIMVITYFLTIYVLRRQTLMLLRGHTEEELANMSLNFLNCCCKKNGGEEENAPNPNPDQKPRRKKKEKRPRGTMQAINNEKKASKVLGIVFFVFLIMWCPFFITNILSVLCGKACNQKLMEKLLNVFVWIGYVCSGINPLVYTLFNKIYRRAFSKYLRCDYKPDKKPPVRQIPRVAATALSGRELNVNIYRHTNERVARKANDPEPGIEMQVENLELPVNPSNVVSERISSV
measurement-label: Ki (nM)
Write down the numeric answer in nM and omit the unit.

Would you kindly share the measured Ki for O=C1C2C3C=CC(C3)C2C(=O)N1OCCCN1CCN(c2cccc(C3=NCCS3)c2)CC1 (stereo not drawn) ?
46.8

Entry under review: O=C(NCCCN1CCN(c2ccccc2C2=NCCS2)CC1)C1CC2C=CC1C2 (stereo not drawn) . Reported Ki?
794

Continuing:
For O=C1C2C3C=CC(O3)C2C(=O)N1OCCCN1CCN(c2ccccc2C2=NCCS2)CC1 (stereo not drawn) , what is its reported Ki?
3240

Look up Ki for this compound: O=C(NCCCN1CCN(c2ccc(C3=NCCS3)cc2)CC1)c1ccncc1
2240

Data request, read-out Ki, for O=C(NCCCN1CCN(c2cccc(C3=NCCS3)c2)CC1)c1ccccn1
832

// lookup Ki for O=C(NCCCN1CCN(c2ccc(C3=NCCS3)cc2)CC1)C1CC2C=CC1C2 (stereo not drawn)
2400

====

molecular target: 5‐HT2C receptor (Rattus norvegicus, UniProt P08909); construct: 10 μM pargyline and 160μg of the frontal cortex membrane suspension; from tissue; host or cells: rat (Sprague-Dawley) frontal cortex membranes; assay: 5‐HT2C competition binding assay ([3H]mesulergine, frontal cortex membranes); details: 5 nM [3H]mesulergine, 95% CI in brackets, read-out: 5‐HT2C Ki (95% CI)
measurement-label: Ki
Returns: string containing the numeric result and its unit.

Recorded results for 4 molecules are shown here.
Record O=C1C2C3C=CC(C3)C2C(=O)N1OCCCN1CCN(c2ccccc2C2=NCCS2)CC1 (centres unmarked) : what is its Ki with 5‐HT2C receptor (Rattus norvegicus, UniProt P08909)?
80.8 µM

Requested read-out Ki, target or system 5‐HT2C receptor (Rattus norvegicus, UniProt P08909), entry O=C(NCCCN1CCN(c2ccccc2C2=NCCS2)CC1)c1ccccn1
6.86 µM

So what Ki did O=C(NCCCN1CCN(c2cccc(C3=NCCS3)c2)CC1)C1CC2C=CC1C2 (centres unmarked) [FG‐17] get with 5‐HT2C receptor (Rattus norvegicus, UniProt P08909)?
1.66 µM

Param readout = Ki; param system = 5‐HT2C receptor (Rattus norvegicus, UniProt P08909); param query = O=C1C2C3C=CC(C3)C2C(=O)N1OCCCN1CCN(c2ccc(C3=NCCS3)cc2)CC1 (centres unmarked) ; response: value
2.03 µM

Please examine the following record next.
Notebook entry, 5‐HT2C receptor (Rattus norvegicus, UniProt P08909) assay: Ki of O=C(NCCCN1CCN(c2ccccc2C2=NCCS2)CC1)c1ccncc1 = ?
7.28 µM

====

molecular target: 5‐HT2A receptor (Rattus norvegicus); assay: Inhibition of 5‐HT‐evoked contractions in isolated rat ileum; settings: IC50, inhibition of 5‐HT‐induced contractions in the rat ileum, 5‐HT 10^−5 M; compounds 10^−8–10^−5 M, contact time 10 min
Sequence (P14842 whole entry): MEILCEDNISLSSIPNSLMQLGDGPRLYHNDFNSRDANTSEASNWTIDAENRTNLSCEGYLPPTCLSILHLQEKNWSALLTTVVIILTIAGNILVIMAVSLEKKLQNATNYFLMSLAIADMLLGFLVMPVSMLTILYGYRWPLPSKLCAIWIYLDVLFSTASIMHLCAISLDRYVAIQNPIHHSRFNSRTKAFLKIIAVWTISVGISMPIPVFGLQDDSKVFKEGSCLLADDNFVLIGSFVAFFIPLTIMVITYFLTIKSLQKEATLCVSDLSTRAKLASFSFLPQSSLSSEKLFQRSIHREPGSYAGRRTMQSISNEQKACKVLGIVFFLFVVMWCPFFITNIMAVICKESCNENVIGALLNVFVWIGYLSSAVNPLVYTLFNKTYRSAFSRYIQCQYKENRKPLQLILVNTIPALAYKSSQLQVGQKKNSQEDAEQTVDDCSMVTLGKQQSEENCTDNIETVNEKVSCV
measurement-label: IC50 (nM)
# unit: nM | format: bare number

Solved cases (3 shown):
Enter reported IC50 observed with 5‐HT2A receptor (Rattus norvegicus) for O=C(NCCCN1CCN(c2cccc(C3=NCCS3)c2)CC1)C1CC2C=CC1C2 (centres unmarked) [FG‐14]
2590

Write down the reported IC50 of O=C1C2C3C=CC(C3)C2C(=O)N1OCCCN1CCN(c2ccccc2C2=NCCS2)CC1 (centres unmarked) [FG‐7] , test system: 5‐HT2A receptor (Rattus norvegicus).
1790

Form: Entry = O=C(NCCCN1CCN(c2cccc(C3=NCCS3)c2)CC1)C1CC2C=CC1C2 (centres unmarked) [FG‐17] | System = 5‐HT2A receptor (Rattus norvegicus) | IC50 = ____
1250

***
Form field: IC50 recorded for O=C(NCCCN1CCN(c2cccc(C3=NCCS3)c2)CC1)c1ccccn1 [FG‐2] with 5‐HT2A receptor (Rattus norvegicus) (enter value)
6120

Identify the measured IC50 of O=C(NCCCN1CCN(c2ccc(C3=NCCS3)cc2)CC1)C1CC2C=CC1C2 (centres unmarked) [FG‐18] for 5‐HT2A receptor (Rattus norvegicus).
2970

====

target: 5‐HT1A receptor (Rattus norvegicus, UniProt P19327); construct: 80 μg of hippocampal membrane suspension (the 5‐HT1A assay); from tissue; host or cells: rat (Sprague-Dawley) hippocampus membranes; experiment: 5‐HT1A competition binding assay ([3H]8‐OH‐DPAT, hippocampal membranes); details: 1 nM [3H]8‐OH‐DPAT, read-out: 5‐HT1A pKi (converted)
Sequence (P19327 whole entry): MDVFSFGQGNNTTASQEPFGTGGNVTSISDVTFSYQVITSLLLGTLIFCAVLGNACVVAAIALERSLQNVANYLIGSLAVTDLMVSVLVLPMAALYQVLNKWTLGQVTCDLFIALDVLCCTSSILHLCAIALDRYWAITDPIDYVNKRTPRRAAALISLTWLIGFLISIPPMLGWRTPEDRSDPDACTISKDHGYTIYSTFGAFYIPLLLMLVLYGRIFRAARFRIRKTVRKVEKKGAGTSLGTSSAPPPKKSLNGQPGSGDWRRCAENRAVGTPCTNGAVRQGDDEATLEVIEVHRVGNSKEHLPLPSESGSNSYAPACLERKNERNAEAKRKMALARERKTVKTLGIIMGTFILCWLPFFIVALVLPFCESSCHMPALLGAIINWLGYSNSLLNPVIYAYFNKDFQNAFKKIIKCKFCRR
Labelling: Ki reported below 30 µM becomes condition met; at or above becomes condition not met.

Item O=C(NCCCN1CCN(c2ccc(C3=NCCS3)cc2)CC1)C1CC2C=CC1C2 (stereo not shown) [FG‐18] : Ki beneath 30 µM, strictly?
condition met

Answer whether the compound O=C1C2C3C=CC(O3)C2C(=O)N1OCCCN1CCN(c2ccc(C3=NCCS3)cc2)CC1 (stereo not shown) has Ki strictly less than 30 µM
condition not met

Below 30 µM on Ki? Entry O=C(NCCCN1CCN(c2ccc(C3=NCCS3)cc2)CC1)c1ccncc1
condition met

New cases:
Please state whether Ki is below 30 µM for O=C1C2C3C=CC(C3)C2C(=O)N1OCCCN1CCN(c2cccc(C3=NCCS3)c2)CC1 (stereo not shown)
condition met

Answer whether the compound O=C(NCCCN1CCN(c2ccc(C3=NCCS3)cc2)CC1)C1CC2C=CC1C2 (stereo not shown) [FG‐15] has Ki strictly less than 30 µM
condition met

Take the compound O=C(NCCCN1CCN(c2ccc(C3=NCCS3)cc2)CC1)c1ccccn1 and say whether its Ki is less than 30 µM.
condition met

is_below(Ki, 30 µM) for O=C1C2C3C=CC(C3)C2C(=O)N1OCCCN1CCN(c2ccc(C3=NCCS3)cc2)CC1 (stereo not shown) ?
condition not met
